# Assay Overview: gradient 5% acetonitrile 3 min, to 50% in 2 min, to 85% in 15 min, held 3 min, 100 µL/min
# Condition Label: column: Zorbax Extend-C18 2.1 x 50 mm; eluents: water / acetonitrile, 0.1% formic acid
Classification field: met = RP-LC retention time at or over 900 s; not met = RP-LC retention time under 900 s.

compound=COc1ccc(-n2c(=O)c3sccc3n(Cc3nc(-c4ccc(C)c(C)c4)no3)c2=O)cc1 class=met
compound="CC(C)Oc1ccc(-c2noc(CN3N=NC4C(=O)N(c5ccc(F)c(F)c5)C(=O)C43)n2)cc1 (stereo not drawn)" class=met
compound="Cc1ccc(N2CC(c3noc(-c4ccncc4)n3)CC2=O)cc1 (stereo not drawn)" class="not met"
compound="Cc1nn(C(C)C(=O)Nc2ccc(Cl)cn2)c(=O)c2c(-n3cccc3)n(-c3ccccc3)nc12 (stereo not drawn)" class=met
compound=Cc1ccc(N2CCN(Cc3nc(-c4ccc(N5CCOCC5)nc4)no3)CC2)cc1 class="not met"

Hi team, for O=C(CCCn1nnc2ccccc2c1=O)Nc1nc2ccccc2[nH]1 , is the recorded RP-LC retention time at or above 900 s? not met

Same for Cc1ccc(C)c(C(=O)N2CCC3(CC2)N=C(c2ccccc2)NO3)c1 not met

Same for Cc1ccc(-n2nc(N3CCCN(C(=O)Nc4cccc(C)c4)CC3)ccc2=O)cc1 not met

Same for CCn1ccc2c(cc(C(=O)Nc3ccc(C)c(F)c3)n2C)c1=O not met

Same for O=C(CCCc1nc(-c2ccc(Cl)cc2)no1)Nc1nc(-c2ccccc2)cs1 met

Same for Cc1nn(CC(=O)NCCN2CCCCC2)c(=O)c2nc(-c3ccccc3)sc12 not met

Same for Cn1cccc1C(=O)C(=O)Nc1ccc(Cl)c(C(F)(F)F)c1 met

Same for Cc1ccc(-n2nc(N3CCN(C(=O)Nc4ccc(F)cc4)CC3)ccc2=O)cc1 not met

Same for CCOC(=O)C(C)NC(=O)N1CCN(c2nc3ccccc3n2CC)CC1 (stereo not drawn) not met

----------
# maps each entry to its RP-LC retention time
# Assay Overview: gradient 5% acetonitrile 3 min, to 50% in 2 min, to 85% in 15 min, held 3 min, 100 µL/min
# Condition Label: column: Zorbax Extend-C18 2.1 x 50 mm; eluents: water / acetonitrile, 0.1% formic acid
Respond with the bare value in s.

compound=Cc1nc(N2CCCC2)c2c(C(=O)Nc3ccc(C)c(F)c3)c(C)oc2n1 unit_tag=s test_result=836
compound="CCOc1nc2ccccc2nc1N1CCCC(C(=O)Nc2cc(Cl)ccc2C)C1 (centres undefined)" unit_tag=s test_result=1310

Data request, read-out RP-LC retention time, for COc1ccccc1OC(C)C(=O)Nc1ccnn1Cc1cccs1 (centres undefined) 842

Same for O=C(NCCN1C(=O)C2(CCCCC2)C1c1ccccc1)Nc1ccccc1F (centres undefined) 965

Same for Cc1ccccc1NC(=O)C1CCN(S(=O)(=O)c2ccc3c(c2)sc(=O)n3C(C)C)CC1 951

Same for COc1ccc(Cn2cccc2-c2nc(-c3ccncc3)no2)cc1 1080

Same for O=C(NC1CCCCCC1)c1nnc(-c2ccc(S(=O)(=O)N3CCOCC3)cc2)o1 917

Same for Cn1cc(-c2nc(C(=O)Nc3ccc(Cl)cc3F)cs2)c2cccnc21 1260

Same for CCCNc1cc(N2CCC(CCC(=O)Nc3ccc(OC)cc3OC)CC2)ncn1 648
